# Tested on: Trypanosoma cruzi amastigotes cultured in 3T3 fibroblast cells
# MEASUREMENT_NOTES: Assay for growth inhibition of kinetoplastid parasite Trypanosoma cruzi (beta-galactosidase Tulahuen strain, CPRG readout)
# Assay type: cell-based
# CONDITION_DESCRIPTION: Trypanosoma cruzi, Fibroblast, T. cruzi amastigotes in 3T3 fibroblast cells; read-out: Buckner infectious T. cruzi EC50
pEC50: −log10 of the molar value.
# binarize pEC50: threshold 8 inclusive, high side condition met, low side condition not met

Known results for compounds:
CNc1cnc2nn(-c3cc(NC(=O)c4ccco4)ccc3F)cc2c1 : condition not met
CC(C)OC(=O)Nc1cnc2nn(-c3cc(NC(=O)c4ccco4)ccc3F)cc2c1 : condition met
O=C(Nc1ccc(F)c(-n2cc3cc(C4CC4)cnc3n2)c1)N1CCC1 : condition met
O=C(Nc1ccc(Cl)c(-n2cc3cc(-c4ccccn4)cnc3n2)c1)N1CC(F)C1 : condition met

Task: Could you please find out whether O=C(Nc1ccc(F)c(-n2cc3cc(-c4ccccn4)cnc3n2)c1)N1CCCC1 has pEC50 that meets 8 or exceeds it?
Result: condition met

Task: Could you please find out whether O=C(Nc1ccc(F)c(-n2cc3cc(-c4cnn(C5CC5)c4)cnc3n2)c1)N1CC(F)C1 has pEC50 that meets 8 or exceeds it?
Result: condition not met

Task: Could you please find out whether O=C(Nc1ccc(F)c(-n2cc3cc(C4CCCCC4)cnc3n2)c1)N1CC[C@@H](F)C1 has pEC50 that meets 8 or exceeds it?
Result: condition not met

Task: Could you please find out whether O=C(Nc1ccc(F)c(-n2cc3cc(-c4ccccn4)cnc3n2)c1)N1CCC1 has pEC50 that meets 8 or exceeds it?
Result: condition met

Task: Could you please find out whether CC(C)Cc1cnc2nn(-c3cc(NC(=O)N4CC(F)C4)ccc3F)cc2c1 has pEC50 that meets 8 or exceeds it?
Result: condition met

----------
Some compounds, each annotated with its measured EC50.
# System: L. donovani HU3 strain in mouse peritoneal macrophages
# MEASUREMENT_NOTES: Assay for inhibition of parasitemia of Leishmania donovani in mouse macrophages (SYBR Green nuclei count, high-content imaging)
# Type: cell-based
# CONDITION_DESCRIPTION: Leishmania donovani, Peritoneal macrophage, L. donovani in mouse peritoneal macrophages; read-out: L. donovani in Mouse Macrophages EC50
Note: unit nM is implicit; provide only the numeric part.

# example entries with known answers
CCC(C)c1cnc2nn(-c3cc(NC(=O)N4CCC4)ccc3F)cc2c1 (stereo not shown) : 21
CN(C)c1cnc2nn(-c3cc(NC(=O)N4CC5(CC5)C4)ccc3F)cc2c1 : 224
O=C(Nc1ccc(Cl)c(-n2cc3cc(-c4ccccn4)cnc3n2)c1)N1CC(F)C1 : 19

Alright, here's another compound for you.
Task: Can you share its EC50? I mean this compound: CC(C)OC(=O)Nc1cnc2nn(-c3cc(NC(=O)N4CC[C@@H](F)C4)ccc3F)cc2c1
Result: 19

----------
# Test system: Trypanosoma cruzi amastigotes cultured in 3T3 fibroblast cells
# MEASUREMENT_NOTES: Assay for growth inhibition of kinetoplastid parasite Trypanosoma cruzi (beta-galactosidase Tulahuen strain, CPRG readout)
# Assay type: cell-based
# CONDITION_DESCRIPTION: Trypanosoma cruzi, Fibroblast, T. cruzi amastigotes in 3T3 fibroblast cells; read-out: Buckner infectious T. cruzi EC50
OBSERVATION_TYPE: EC50 (nM)
Note: unit nM is implicit; provide only the numeric part.

O=C(Nc1ccc(F)c(-n2cc3cc(N4CC5(CC5)C4)cnc3n2)c1)N1CC[C@@H](F)C1 : 3
O=C(Nc1ccc(F)c(-n2cc3cc(C4CCN(Cc5ccc(F)cc5)CC4)cnc3n2)c1)N1CC(F)C1 : 1

Task: Can you share its EC50? I mean this molecule: O=C(Nc1ccc(F)c(-n2cc3cc(-c4cnccn4)cnc3n2)c1)N1CC(F)C1
Result: 5
